- Tested on: NCI-H460
- test_details: NCI tumour cell line growth inhibition, 48 h
The source made the active and inactive calls. Cut-off read from the data, not from the text of the source: active = GI50 up to about 1.1 µM and inactive = higher.
Each entry below lists one item and its recorded GI50 value.

Incoming: Item Cc1cc2c(CC(=O)O)n[nH]c2c(C(=O)O)c1C has what recorded GI50?
Outgoing: > 100 µM (inactive)

---

- Test system: EKVX
- test_details: NCI tumour cell line growth inhibition, 48 h
Structures can show the parent of a compound that is named as a salt. Activity calls are given as the source filed them. No stated cut-off is given here; in the data, active = GI50 up to about 1.1 µM and inactive = higher.
reported_endpoint: GI50

Please review the entries below; each comes with its answer.
Incoming: Provide value of GI50 for this record tested with EKVX: COC(=O)C1C(OS(=O)(=O)O)CCC2CN3CCc4c([nH]c5ccccc45)C3CC21 (stereo unspecified)
Outgoing: > 100 µM (inactive)

Incoming: Provide value of GI50 for this record tested with EKVX: COc1cccc(C2c3cc4c(cc3OC(N3CCOCC3)C2C)OCO4)c1O (stereo unspecified)
Outgoing: 9.14 µM (inactive)

Incoming: Provide value of GI50 for this record tested with EKVX: NCCCN(CCCCN(CCCN)CCCc1ccccc1)CCCc1ccccc1
Outgoing: 2.99 µM (inactive)

Incoming: Provide value of GI50 for this record tested with EKVX: CC(=O)Nc1ccc(C(=O)N2N=C(C)/C(=C/c3ccc(O)cc3)C2=O)cc1
Outgoing: > 100 µM (inactive)

***
Incoming: Provide value of GI50 for this record tested with EKVX: CCCCC1(C(NC(=O)c2ccccc2Cl)c2ccncc2)C(=O)N(c2ccccc2)N(c2ccccc2)C1=O (stereo unspecified)
Outgoing: 58.3 µM (inactive)

Incoming: Provide value of GI50 for this record tested with EKVX: COc1cc2c(cc1OCc1ccccc1)NC(=O)[C@@H]1C[C@@H](O)CN1C2=O
Outgoing: > 100 µM (inactive)

Incoming: Provide value of GI50 for this record tested with EKVX: O=C1C=CC2(C=C1)C[C@H](NC(=O)OCc1ccccc1)C(=O)O2
Outgoing: 12.9 µM (inactive)

Incoming: Provide value of GI50 for this record tested with EKVX: O=C1c2ccccc2C(=O)c2c(NCCNCCO)ccc(O)c21
Outgoing: 3.98 µM (inactive)

Incoming: Provide value of GI50 for this record tested with EKVX: COC(=O)C1=C(C)N2CCSC2(C)C(C(=O)OC)C1c1cccc(Cl)c1 (stereo unspecified)
Outgoing: 12.6 µM (inactive)

Incoming: Provide value of GI50 for this record tested with EKVX: NCCS [CYSTEAMINE HYDROCHLORIDE]
Outgoing: > 100 µM (inactive)

Incoming: Provide value of GI50 for this record tested with EKVX: O=c1[nH]c(=O)n(C2CC(O)C(CO)O2)cc1C#Cc1cc(F)cc(F)c1 (stereo unspecified)
Outgoing: > 100 µM (inactive)

Incoming: Provide value of GI50 for this record tested with EKVX: O=C(CC1(O)C(=O)Nc2c(Cl)ccc(Cl)c21)c1ccc(Cl)cc1Cl (stereo unspecified)
Outgoing: 21.6 µM (inactive)

Incoming: Provide value of GI50 for this record tested with EKVX: O=C(O)[C@@H]1NC[C@H]2C(Br)=NO[C@H]21
Outgoing: > 100 µM (inactive)

Incoming: Provide value of GI50 for this record tested with EKVX: O[C@@H]1C=C[C@]23CCN(Cc4cc5c(cc42)OCO5)[C@@H]3C1
Outgoing: 87.1 µM (inactive)

Incoming: Provide value of GI50 for this record tested with EKVX: O=c1[nH]c(=O)n(C2OC(CO)C(O)C2O)c2ccsc12 (stereo unspecified)
Outgoing: > 100 µM (inactive)

Incoming: Provide value of GI50 for this record tested with EKVX: Cc1ccc(C(=O)N/N=C(\N=N\c2cccc([N+](=O)[O-])c2)c2ccc(N(C)C)cc2)cc1
Outgoing: 25.2 µM (inactive)
